Attribute: pKi
systemUnderTest: human noradrenaline transporter (hNET) (Homo sapiens)
Construct: expressed in transfected cells; host or cells: HEK-293
Sequence (P23975 whole entry): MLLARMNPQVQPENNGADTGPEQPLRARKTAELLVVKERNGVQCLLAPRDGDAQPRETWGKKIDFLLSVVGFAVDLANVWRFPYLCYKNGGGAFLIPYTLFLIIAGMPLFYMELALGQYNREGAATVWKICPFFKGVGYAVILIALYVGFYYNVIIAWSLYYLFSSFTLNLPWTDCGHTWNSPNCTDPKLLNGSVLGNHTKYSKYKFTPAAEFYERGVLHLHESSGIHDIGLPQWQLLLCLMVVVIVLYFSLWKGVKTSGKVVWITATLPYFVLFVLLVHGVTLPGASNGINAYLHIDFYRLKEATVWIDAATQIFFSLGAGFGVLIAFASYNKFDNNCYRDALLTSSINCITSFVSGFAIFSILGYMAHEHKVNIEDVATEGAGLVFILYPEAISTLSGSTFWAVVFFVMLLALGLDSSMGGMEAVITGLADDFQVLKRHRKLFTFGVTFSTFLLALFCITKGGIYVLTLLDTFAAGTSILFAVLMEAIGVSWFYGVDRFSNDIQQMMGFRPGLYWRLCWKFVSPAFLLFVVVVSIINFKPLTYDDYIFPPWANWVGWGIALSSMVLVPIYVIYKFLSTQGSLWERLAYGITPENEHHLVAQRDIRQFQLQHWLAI
assayProcedure: SPA radioligand binding (3H-nisoxetine) at the human noradrenaline transporter
conditionParameters: hNET membranes from HEK-293 cells, Cheng-Prusoff, geometric mean, read-out: NRI Ki
pKi: −log10 of the molar value. Structures can show the parent of a compound that is named as a salt.

compound	pKi
O=C(c1cccc(Cl)c1Cl)N([C@H]1C[C@H]2CC[C@H]2C1)[C@H]1CCNC1	7.92
CC(F)(F)CN(C(=O)c1ccccc1Oc1ccccc1)[C@H]1CCNC1 [Example 7, hydrochloride]	8.00
O=C(c1cccc(Cl)c1Cl)N(CCC(F)(F)F)[C@H]1CCNC1 [Example 5, hydrochloride]	7.24
O=C(c1cccc(Cl)c1Cl)N(C(C1CC1)C1CC1)[C@H]1CCNC1 [Example 10, hydrochloride]	7.14
